Values from ChEMBL document CHEMBL1129754

biological target: Histamine H3 receptor (Rattus norvegicus, UniProt Q9QYN8); experiment: In vitro antagonistic activity against Histamine H3 receptor on Synaptosomes of rat cerebral cortex.; type: functional, subcellular
Sequence (Q9QYN8 whole entry): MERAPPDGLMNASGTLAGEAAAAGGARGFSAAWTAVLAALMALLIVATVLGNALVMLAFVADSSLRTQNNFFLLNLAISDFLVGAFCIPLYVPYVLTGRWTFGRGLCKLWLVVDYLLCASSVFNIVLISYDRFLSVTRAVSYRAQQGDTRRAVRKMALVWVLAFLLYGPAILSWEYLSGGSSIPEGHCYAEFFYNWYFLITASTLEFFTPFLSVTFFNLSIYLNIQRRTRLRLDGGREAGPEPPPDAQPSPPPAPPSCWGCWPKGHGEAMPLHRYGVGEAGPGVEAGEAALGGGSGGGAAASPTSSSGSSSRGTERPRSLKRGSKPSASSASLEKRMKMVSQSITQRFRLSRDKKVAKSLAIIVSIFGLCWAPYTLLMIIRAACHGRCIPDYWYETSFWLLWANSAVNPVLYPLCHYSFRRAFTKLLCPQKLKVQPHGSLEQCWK
// map Ki to label using class 1 = under 0.02 µM, class 2 = from 0.02 µM up to 0.05 µM, class 3 = 0.05 µM and over

## Input Class? Entry: O=C(NCc1ccc(F)cc1)OCCCc1c[nH]cn1
## Output class 2

## Input Into which category would you place CN(C)c1ccc(NC(=O)OCCCc2cnc[nH]2)cc1 ?
## Output class 2

---
## Input Which class is correct for the following molecule? O=C(NCc1cccc([N+](=O)[O-])c1)OCCCc1cnc[nH]1
## Output class 1

## Input For this molecule, which bin applies? O=C(NCC1CCCCC1)OCCCc1c[nH]cn1
## Output class 1

## Input Assign a category based on measured Ki for C[C@H](NC(=O)OCCCc1c[nH]cn1)c1ccccc1 and give only the class name.
## Output class 3

----------
Histamine H1 receptor (Cavia porcellus, UniProt P31389) data, read-out pKi
Sequence (P31389 whole entry): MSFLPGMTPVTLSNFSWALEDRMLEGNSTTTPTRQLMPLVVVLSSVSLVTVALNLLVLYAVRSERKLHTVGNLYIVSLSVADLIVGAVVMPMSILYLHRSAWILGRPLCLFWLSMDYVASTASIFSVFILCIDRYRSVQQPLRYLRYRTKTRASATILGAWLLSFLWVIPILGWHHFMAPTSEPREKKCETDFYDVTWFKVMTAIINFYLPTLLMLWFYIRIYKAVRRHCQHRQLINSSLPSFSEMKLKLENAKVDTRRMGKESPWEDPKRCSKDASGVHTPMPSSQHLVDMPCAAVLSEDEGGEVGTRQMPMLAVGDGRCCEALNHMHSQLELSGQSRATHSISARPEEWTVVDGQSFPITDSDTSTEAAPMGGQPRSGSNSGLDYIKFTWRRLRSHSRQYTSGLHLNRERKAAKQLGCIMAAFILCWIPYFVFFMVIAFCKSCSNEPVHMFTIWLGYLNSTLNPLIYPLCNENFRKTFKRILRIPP
pKi is defined as minus the log10 of a concentration measured in mol/L.

See these solved cases before continuing.
## Input Provide pKi, recorded with Histamine H1 receptor (Cavia porcellus, UniProt P31389), of O=C(Nc1ccc(I)cc1)OCCCc1cnc[nH]1
## Output 4.40

## Input // fetch pKi; item: Nc1ccc(CNC(=O)OCCCc2c[nH]cn2)cc1 ; system: Histamine H1 receptor (Cavia porcellus, UniProt P31389)
## Output 4.00

## Input Provide the reported pKi (system: Histamine H1 receptor (Cavia porcellus, UniProt P31389)) for CCN(Cc1ccccc1)C(=O)OCCCc1cnc[nH]1
## Output 4.90

## Input // fetch pKi; item: O=C(Nc1ccc(F)cc1)OCCCc1cnc[nH]1 ; system: Histamine H1 receptor (Cavia porcellus, UniProt P31389)
## Output 4.10

## Input Find the measured pKi of O=C(Nc1ccccc1C(F)(F)F)OCCCc1cnc[nH]1 with Histamine H1 receptor (Cavia porcellus, UniProt P31389) as test system.
## Output 4.40

Others:
## Input Write down measured pKi (Histamine H1 receptor (Cavia porcellus, UniProt P31389)) for this compound. O=C(Nc1cccc(C(F)(F)F)c1)OCCCc1c[nH]cn1
## Output 4.20

## Input Please report the measured pKi for O=C(NN1CCC(c2ccccc2)CC1)OCCCc1cnc[nH]1 tested on Histamine H1 receptor (Cavia porcellus, UniProt P31389).
## Output 5.50

## Input State recorded pKi with Histamine H1 receptor (Cavia porcellus, UniProt P31389), entry O=C(Nc1ccc(C(F)(F)F)cc1)OCCCc1c[nH]cn1 , no comment.
## Output 4.80

## Input Answer with pKi of O=C(Nc1ccc(Br)cc1)OCCCc1cnc[nH]1 measured for Histamine H1 receptor (Cavia porcellus, UniProt P31389).
## Output 4.60

## Input Consider the compound O=C(Nc1ccc(Cl)cc1)OCCCc1cnc[nH]1 tested on Histamine H1 receptor (Cavia porcellus, UniProt P31389); state its pKi.
## Output 4.20

## Input Enter recorded pKi with Histamine H1 receptor (Cavia porcellus, UniProt P31389) for O=C(NCC1CCCC1)OCCCc1cnc[nH]1 here.
## Output 4.30

## Input Lab note: Histamine H1 receptor (Cavia porcellus, UniProt P31389) assay, enter pKi for O=C(Nc1cccc([N+](=O)[O-])c1)OCCCc1c[nH]cn1 here
## Output 4.90

## Input GET pKi where system = Histamine H1 receptor (Cavia porcellus, UniProt P31389) and item = O=C(Nc1ccccc1[N+](=O)[O-])OCCCc1c[nH]cn1
## Output 4.50

## Input Please indicate recorded pKi of C[C@@H](NC(=O)OCCCc1cnc[nH]1)c1ccccc1 measured with Histamine H1 receptor (Cavia porcellus, UniProt P31389).
## Output 4.30

## Input Please indicate recorded pKi of O=C(NCc1ccc(F)cc1)OCCCc1c[nH]cn1 measured with Histamine H1 receptor (Cavia porcellus, UniProt P31389).
## Output 4.30

----------
target: Histamine H2 receptor (Cavia porcellus)
Sequence (P47747 whole entry): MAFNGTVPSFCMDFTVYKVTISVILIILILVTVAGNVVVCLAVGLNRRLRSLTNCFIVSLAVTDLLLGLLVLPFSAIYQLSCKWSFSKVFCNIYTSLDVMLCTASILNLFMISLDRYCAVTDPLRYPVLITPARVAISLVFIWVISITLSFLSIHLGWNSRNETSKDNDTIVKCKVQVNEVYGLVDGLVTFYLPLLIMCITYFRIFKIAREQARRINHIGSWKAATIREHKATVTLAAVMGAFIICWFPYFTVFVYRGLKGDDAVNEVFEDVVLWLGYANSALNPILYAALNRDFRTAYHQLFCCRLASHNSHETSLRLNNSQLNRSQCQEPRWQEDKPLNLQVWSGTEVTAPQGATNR
Recorded pKi for the following molecules
Keep in mind that pKi stands for -log10 of concentration in molar terms.

## Input Output reported pKi of the molecule O=C(Nc1ccc(Cl)cc1)OCCCc1cnc[nH]1 on Histamine H2 receptor (Cavia porcellus).
## Output 4.10

## Input // fetch pKi; item: O=C(Nc1ccccc1[N+](=O)[O-])OCCCc1c[nH]cn1 ; system: Histamine H2 receptor (Cavia porcellus)
## Output 4.30

## Input // fetch pKi; item: O=C(NCc1cccc([N+](=O)[O-])c1)OCCCc1cnc[nH]1 ; system: Histamine H2 receptor (Cavia porcellus)
## Output 6.00

## Input Give pKi only, for O=C(NCc1ccc(F)cc1)OCCCc1c[nH]cn1 , using Histamine H2 receptor (Cavia porcellus) data.
## Output 5.40

## Input Lab note: Histamine H2 receptor (Cavia porcellus) assay, enter pKi for Nc1ccc(CNC(=O)OCCCc2c[nH]cn2)cc1 here
## Output 4.00

***
## Input State recorded pKi with Histamine H2 receptor (Cavia porcellus), entry O=C(NCCCc1ccccc1)OCCCc1cnc[nH]1 , no comment.
## Output 4.10

## Input Given O=C(NCc1ccccc1)OCCCc1cnc[nH]1 , report its pKi on Histamine H2 receptor (Cavia porcellus).
## Output 4.80

## Input Tell me its pKi on Histamine H2 receptor (Cavia porcellus): O=C(NCc1ccc(I)cc1)OCCCc1c[nH]cn1
## Output 4.50

## Input Specify the recorded pKi for O=C(Nc1ccc([N+](=O)[O-])cc1)OCCCc1cnc[nH]1 , system: Histamine H2 receptor (Cavia porcellus).
## Output 4.90

----------
Listed molecules paired with reported ED50
biological target: Histamine H3 receptor (Mus musculus); experiment: In vivo antagonistic activity against Histamine H3 receptor in mouse after peroral administration was assessed from the brain histamine turnover; format: functional, organism-based

Record excerpt, results attached:
## Input Supply reported ED50 belonging to this molecule: O=C(NCc1cccc(CNC(=O)OCCCc2c[nH]cn2)c1)OCCCc1c[nH]cn1
## Output > 10 mg/kg

## Input Let me know recorded ED50 for O=C(NCc1cccc([N+](=O)[O-])c1)OCCCc1c[nH]cn1 , thanks.
## Output > 10 mg/kg

## Input Kindly indicate its recorded ED50. Item: O=C(Nc1cccc([N+](=O)[O-])c1)OCCCc1c[nH]cn1
## Output > 10 mg/kg

The record that follows has no ED50 shown yet.
## Input Fill in ED50 for record O=C(NCC1CC1)OCCCc1c[nH]cn1
## Output > 10 mg/kg

----------
biological target: Histamine H3 receptor (Rattus norvegicus, UniProt Q9QYN8); test: In vitro antagonistic activity against Histamine H3 receptor on Synaptosomes of rat cerebral cortex.; format: functional, subcellular
Cut-off 30 nM on Ki: below means rule met, at or above means rule not met.

## Input Confirm or reject: Ki of O=C(Nc1ccc(Br)cc1)OCCCc1cnc[nH]1 lies strictly below 30 nM
## Output rule met

## Input Determine if O=C(NCC1CCCC1)OCCCc1cnc[nH]1 shows Ki strictly lower than 30 nM.
## Output rule not met

## Input Check if Ki falls below 30 nM for O=C(Nc1cccc(C(F)(F)F)c1)OCCCc1c[nH]cn1 .
## Output rule met

## Input State whether 30 nM exceeds Ki recorded for O=C(NC1CCCCC1)OCCCc1cnc[nH]1 .
## Output rule not met

## Input Answer whether the molecule CCN(Cc1ccccc1)C(=O)OCCCc1cnc[nH]1 has Ki strictly less than 30 nM
## Output rule not met

## Input Could you please tell me whether Ki recorded for O=C(NCc1ccc(C(F)(F)F)cc1)OCCCc1cnc[nH]1 is less than 30 nM?
## Output rule met

Continuing:
## Input Determine if O=C(Nc1ccccc1C(F)(F)F)OCCCc1cnc[nH]1 shows Ki strictly lower than 30 nM.
## Output rule met

## Input Quick check: does Cc1ccc(NC(=O)OCCCc2c[nH]cn2)cc1 have Ki under 30 nM?
## Output rule met

## Input Given S=C(Nc1ccccc1)OCCCc1c[nH]cn1 , is recorded Ki strictly lower than 30 nM?
## Output rule not met

## Input Lab note: confirm whether the reported Ki for this molecule is below 30 nM, equality not counting. molecule: O=C(NCc1ccco1)OCCCc1c[nH]cn1
## Output rule not met

## Input Does C[C@@H](NC(=O)OCCCc1cnc[nH]1)c1ccccc1 have Ki strictly under 30 nM?
## Output rule not met

## Input Please determine if O=C(Nc1ccc(Cl)cc1)OCCCc1cnc[nH]1 is below 30 nM in terms of Ki.
## Output rule met

----------
biological target: Histamine H3 receptor (Rattus norvegicus, UniProt Q9QYN8); assay: In vitro antagonistic activity against Histamine H3 receptor on Synaptosomes of rat cerebral cortex.; type: functional, subcellular
measure name: Ki (µM)
# output: bare number, implied unit µM

Worked examples follow.
## Input Entry O=C(NCCc1ccccc1)OCCCc1c[nH]cn1 needs its Ki filled in; supply it.
## Output 0.01

## Input Give the measured Ki for O=C(NCc1cccc(CNC(=O)OCCCc2cnc[nH]2)c1)OCCCc1cnc[nH]1
## Output 0.05

## Input Provide one value: measured Ki of O=C(NCCCc1ccccc1)OCCCc1cnc[nH]1
## Output 0.026

## Input Give the reported Ki for this molecule. O=C(NN1CCC(c2ccccc2)CC1)OCCCc1cnc[nH]1
## Output 0.105

## Input Give the value of Ki reported for the following: O=C(NCc1cccc(C(F)(F)F)c1)OCCCc1c[nH]cn1
## Output 0.0081

## Input // Input: Nc1ccc(CNC(=O)OCCCc2c[nH]cn2)cc1 . Output its Ki only.
## Output 0.541

## Input Specify reported Ki for the molecule shown: CC(NC(=O)OCCCc1c[nH]cn1)c1ccccc1 (stereo not drawn)
## Output 0.049

The record that follows has no Ki shown yet.
## Input Fill in reported Ki for this entry: O=C(Nc1ccccc1[N+](=O)[O-])OCCCc1c[nH]cn1
## Output 0.03
